Assay: AUClast in C57 Black mouse plasma at 10 mg/kg, po
Assay type: ADME, organism-based
Set-up: route oral, time 0 - last, dose 10 mg/kg
RESULT TYPE: AUC(0-t) (ng·h/mL)

>>> df
                              smiles_string  result_type  result_unit  meas_value
0  O=C(CCCc1cccs1)N1CCN(c2ccc(C(F)(F)F)cc2)CC1     AUC(0-t)      ng·h/mL         520

----------
Test: Volume of distribution in C57 Black mouse spleen at 10 mg/kg, iv
Type: ADME, organism-based
RESULT TYPE: Vd (L/kg)

>>> print(df.to_string())
                              smiles_string  result_type  meas_value
0  O=C(CCCc1cccs1)N1CCN(c2ccc(C(F)(F)F)cc2)CC1           Vd        3.19

----------
Assay: Lipophilicity, logP of compound
Format: physicochemical
Settings: octanol/water
RESULT TYPE: logP

In [3]: df
Out[3]:
                              smiles_string  result_type  meas_value
0  O=C(CCCc1cccs1)N1CCN(c2ccc(C(F)(F)F)cc2)CC1         logP        4.79

----------
Test: AUClast in C57 Black mouse muscle at 10 mg/kg, iv
Format: ADME, organism-based, Muscle tissue
Set-up: time 0 - last, route intravenous, dose 10 mg/kg
RESULT TYPE: AUC(0-t) (ng·h/mL)

In [3]: df
Out[3]:
                              smiles_string  result_unit  meas_value
0  O=C(CCCc1cccs1)N1CCN(c2ccc(C(F)(F)F)cc2)CC1      ng·h/mL        77.3

----------
Assay: Volume of distribution in C57 Black mouse brain at 10 mg/kg, iv
Assay type: ADME, organism-based
RESULT TYPE: Vd (L/kg)

                              smiles_string  meas_value
0  O=C(CCCc1cccs1)N1CCN(c2ccc(C(F)(F)F)cc2)CC1        1.83

----------
Assay: AUClast in C57 Black mouse brain at 10 mg/kg, iv
Type: ADME, organism-based
Parameters: time 0 - last, route intravenous, dose 10 mg/kg
RESULT TYPE: AUC(0-t) (ng·h/mL)

                              smiles_string  result_type  meas_value
0  O=C(CCCc1cccs1)N1CCN(c2ccc(C(F)(F)F)cc2)CC1     AUC(0-t)         246

----------
Test: Tmax in C57 Black mouse spleen at 10 mg/kg, po
Format: ADME, organism-based
RESULT TYPE: Tmax (min)

>>> df
                              smiles_string  meas_value
0  O=C(CCCc1cccs1)N1CCN(c2ccc(C(F)(F)F)cc2)CC1          15

----------
Assay: Cmax in C57 Black mouse brain at 10 mg/kg, po
Format: ADME, organism-based
Set-up: route oral, dose 10 mg/kg
RESULT TYPE: Cmax (ng/mL)

                              smiles_string  result_type  meas_value
0  O=C(CCCc1cccs1)N1CCN(c2ccc(C(F)(F)F)cc2)CC1         Cmax        1430

Where do the numbers come from? From ChEMBL document CHEMBL4765370.
